System: U251
Assay summary: Alamar blue cell viability assay, U251 cells
Format: cell-based
Settings: Homo sapiens, U-251; 72 hours of treatment; mean±SEM, three independent experiments
Measurement name: pEC50
The read-out pEC50 is expressed as -log10 of concentration in moles per litre.

The following molecules have reported results that may help.
- Molecule: "O=C(CCCc1ccc(-c2cnc3ccccc3c2)cc1)Nc1ccc(O)cc1"
  pEC50: 6.01
- Molecule: "O=C(CCCc1ccc(-c2cccnc2F)cc1)Nc1ccc(O)cc1"
  pEC50: 5.80
- Molecule: "O=C(CCCc1ccc(-c2cccnc2)cc1)Nc1ccc(O)cc1"
  pEC50: 5.92

Query block: Hello, I am looking for reported pEC50 with U251 for NCc1ccc(-c2ccc(CCCC(=O)Nc3ccc(O)cc3)cc2)cc1 . Could you help?
Result block: 5.82

Query block: Hello, I am looking for reported pEC50 with U251 for O=C(CCCc1ccc(-c2cccnc2F)cc1)Nc1ccccc1 . Could you help?
Result block: 5.34

Query block: Hello, I am looking for reported pEC50 with U251 for O=C(CCCc1ccc(-c2ccc(F)nc2F)cc1)Nc1ccc(O)cc1 . Could you help?
Result block: 5.78

Query block: Hello, I am looking for reported pEC50 with U251 for O=C(CCCc1ccc(-c2ccccc2F)cc1)Nc1ccc(O)cc1 [SC-38, reference compound] . Could you help?
Result block: 6.37

Reference source: patent US10745355B2
